Tested on: Rattus norvegicus
protocol-details: Ex vivo displacement of [125I]oCRF from CRF1 receptor in Sprague-Dawley rat pituitary at 3.2 mg/kg, po after 2 hrs by Betaplate scintillation counter
Format: functional
Decision: inhibition in vivo at 3.2 mg/kg compared against 70%; not below it gives condition met, below it gives condition not met.

| smiles-string | assigned-category |
| --- | --- |
| CCC(CC)Nc1cc(C)nc(Oc2c(C)cc(Br)cc2C)c1C | condition met |

Ask | Has CC[C@@H](CO)Nc1cc(C)nc(Oc2c(C)cc(Cl)cc2C)c1C(=O)OC a recorded inhibition in vivo at 3.2 mg/kg greater than or equal to 70%?
Reply | condition met

Ask | Decide: inhibition in vivo at 3.2 mg/kg of CC[C@@H](CO)Nc1cc(C)nc(Oc2c(C)cc(Cl)cc2C)c1C(=O)NC >= 70%?
Reply | condition not met

Ask | Please indicate if the recorded inhibition in vivo at 3.2 mg/kg for CCC(CC)Nc1cc(C)nc(Oc2c(C)cc(C)cc2C)c1C meets or exceeds 70%.
Reply | condition not met
